Target Under Test: UniProt O95835
Sequence (O95835 whole entry): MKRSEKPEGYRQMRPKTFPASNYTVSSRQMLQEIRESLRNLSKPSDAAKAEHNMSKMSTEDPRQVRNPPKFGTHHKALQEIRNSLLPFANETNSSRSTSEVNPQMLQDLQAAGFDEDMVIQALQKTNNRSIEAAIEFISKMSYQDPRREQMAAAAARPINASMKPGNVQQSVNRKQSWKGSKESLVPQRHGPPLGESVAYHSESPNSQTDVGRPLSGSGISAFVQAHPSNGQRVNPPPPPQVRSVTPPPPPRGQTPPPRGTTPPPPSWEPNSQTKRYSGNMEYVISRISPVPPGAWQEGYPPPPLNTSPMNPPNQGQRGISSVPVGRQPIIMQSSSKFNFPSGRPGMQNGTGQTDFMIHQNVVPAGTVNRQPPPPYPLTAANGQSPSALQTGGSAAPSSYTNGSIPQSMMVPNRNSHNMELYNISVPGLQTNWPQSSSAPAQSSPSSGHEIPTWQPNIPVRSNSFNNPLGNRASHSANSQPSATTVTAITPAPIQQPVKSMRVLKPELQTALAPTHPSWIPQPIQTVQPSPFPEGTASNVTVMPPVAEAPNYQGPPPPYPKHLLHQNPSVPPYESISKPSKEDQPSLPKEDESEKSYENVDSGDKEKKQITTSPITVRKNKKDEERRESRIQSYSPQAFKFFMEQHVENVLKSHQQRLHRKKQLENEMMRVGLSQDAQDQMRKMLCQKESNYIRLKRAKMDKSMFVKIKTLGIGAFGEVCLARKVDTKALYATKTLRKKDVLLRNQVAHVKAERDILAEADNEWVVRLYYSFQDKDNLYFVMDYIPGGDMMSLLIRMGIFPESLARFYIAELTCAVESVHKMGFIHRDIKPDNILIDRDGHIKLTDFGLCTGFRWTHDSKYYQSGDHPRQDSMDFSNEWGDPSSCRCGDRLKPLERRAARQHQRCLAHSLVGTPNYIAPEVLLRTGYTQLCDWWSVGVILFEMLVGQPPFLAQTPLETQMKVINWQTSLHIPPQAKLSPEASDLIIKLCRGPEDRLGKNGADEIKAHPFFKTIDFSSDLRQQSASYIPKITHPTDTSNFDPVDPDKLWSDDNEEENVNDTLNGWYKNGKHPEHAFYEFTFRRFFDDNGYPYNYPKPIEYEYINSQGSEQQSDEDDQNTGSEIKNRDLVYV
Protocol Details: biochemical
Parameters: species or system HEK293/K-562/placenta mixed human extract; Kinobeads chemoproteomic competition binding, quantified by TMT LC-MS/MS, dose response up to 20 uM
Readout: IC50

Substance Smiles: COc1nc(N[C@H]2CC[C@H](NS(=O)(=O)CC(C)C)CC2)nc2[nH]nc(N3CCOC[C@H]3C)c12
Endpoint Value: ≥ 20 µM

====

Target Under Test: NEK7 (Homo sapiens, UniProt Q8TDX7)
Sequence (Q8TDX7 whole entry): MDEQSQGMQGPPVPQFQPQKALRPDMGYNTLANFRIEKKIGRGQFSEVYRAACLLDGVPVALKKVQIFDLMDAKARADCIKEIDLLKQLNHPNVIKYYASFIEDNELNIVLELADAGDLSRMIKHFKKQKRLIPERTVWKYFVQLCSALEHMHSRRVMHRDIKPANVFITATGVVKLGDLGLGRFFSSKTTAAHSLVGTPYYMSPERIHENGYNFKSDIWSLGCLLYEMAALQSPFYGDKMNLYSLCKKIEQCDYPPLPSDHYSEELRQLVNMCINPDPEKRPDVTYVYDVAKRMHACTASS
Protocol Details: biochemical
Design: species or system HEK293/K-562/placenta mixed human extract; Kinobeads chemoproteomic competition binding, quantified by TMT LC-MS/MS, dose response up to 20 uM
Readout: IC50

Compound: COc1nc(N[C@H]2CC[C@H](NS(=O)(=O)CC(C)C)CC2)nc2[nH]nc(N3CCOC[C@H]3C)c12 [compound 39]
Endpoint Value: ≥ 20 µM

====

Target Under Test: DCK (Homo sapiens, UniProt P27707)
Sequence (P27707 whole entry): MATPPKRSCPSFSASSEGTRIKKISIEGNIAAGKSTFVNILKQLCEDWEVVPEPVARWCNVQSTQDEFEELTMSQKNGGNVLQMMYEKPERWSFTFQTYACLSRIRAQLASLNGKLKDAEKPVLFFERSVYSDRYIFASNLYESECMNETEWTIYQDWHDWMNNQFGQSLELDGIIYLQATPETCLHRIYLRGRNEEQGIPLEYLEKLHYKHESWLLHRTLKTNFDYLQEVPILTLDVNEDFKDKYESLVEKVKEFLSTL
Protocol Details: biochemical
Parameters: species or system HEK293/K-562/placenta mixed human extract; Kinobeads chemoproteomic competition binding, quantified by TMT LC-MS/MS, dose response up to 20 uM

Substance Smiles: COc1ccccc1-c1n[nH]c2nc(N[C@H]3CC[C@H](NS(=O)(=O)CCC(F)(F)F)CC3)nc(OC)c12
IC50: ≥ 20 µM

====

Target Under Test: CDC42BPB (Homo sapiens, UniProt Q9Y5S2)
Sequence (Q9Y5S2 whole entry): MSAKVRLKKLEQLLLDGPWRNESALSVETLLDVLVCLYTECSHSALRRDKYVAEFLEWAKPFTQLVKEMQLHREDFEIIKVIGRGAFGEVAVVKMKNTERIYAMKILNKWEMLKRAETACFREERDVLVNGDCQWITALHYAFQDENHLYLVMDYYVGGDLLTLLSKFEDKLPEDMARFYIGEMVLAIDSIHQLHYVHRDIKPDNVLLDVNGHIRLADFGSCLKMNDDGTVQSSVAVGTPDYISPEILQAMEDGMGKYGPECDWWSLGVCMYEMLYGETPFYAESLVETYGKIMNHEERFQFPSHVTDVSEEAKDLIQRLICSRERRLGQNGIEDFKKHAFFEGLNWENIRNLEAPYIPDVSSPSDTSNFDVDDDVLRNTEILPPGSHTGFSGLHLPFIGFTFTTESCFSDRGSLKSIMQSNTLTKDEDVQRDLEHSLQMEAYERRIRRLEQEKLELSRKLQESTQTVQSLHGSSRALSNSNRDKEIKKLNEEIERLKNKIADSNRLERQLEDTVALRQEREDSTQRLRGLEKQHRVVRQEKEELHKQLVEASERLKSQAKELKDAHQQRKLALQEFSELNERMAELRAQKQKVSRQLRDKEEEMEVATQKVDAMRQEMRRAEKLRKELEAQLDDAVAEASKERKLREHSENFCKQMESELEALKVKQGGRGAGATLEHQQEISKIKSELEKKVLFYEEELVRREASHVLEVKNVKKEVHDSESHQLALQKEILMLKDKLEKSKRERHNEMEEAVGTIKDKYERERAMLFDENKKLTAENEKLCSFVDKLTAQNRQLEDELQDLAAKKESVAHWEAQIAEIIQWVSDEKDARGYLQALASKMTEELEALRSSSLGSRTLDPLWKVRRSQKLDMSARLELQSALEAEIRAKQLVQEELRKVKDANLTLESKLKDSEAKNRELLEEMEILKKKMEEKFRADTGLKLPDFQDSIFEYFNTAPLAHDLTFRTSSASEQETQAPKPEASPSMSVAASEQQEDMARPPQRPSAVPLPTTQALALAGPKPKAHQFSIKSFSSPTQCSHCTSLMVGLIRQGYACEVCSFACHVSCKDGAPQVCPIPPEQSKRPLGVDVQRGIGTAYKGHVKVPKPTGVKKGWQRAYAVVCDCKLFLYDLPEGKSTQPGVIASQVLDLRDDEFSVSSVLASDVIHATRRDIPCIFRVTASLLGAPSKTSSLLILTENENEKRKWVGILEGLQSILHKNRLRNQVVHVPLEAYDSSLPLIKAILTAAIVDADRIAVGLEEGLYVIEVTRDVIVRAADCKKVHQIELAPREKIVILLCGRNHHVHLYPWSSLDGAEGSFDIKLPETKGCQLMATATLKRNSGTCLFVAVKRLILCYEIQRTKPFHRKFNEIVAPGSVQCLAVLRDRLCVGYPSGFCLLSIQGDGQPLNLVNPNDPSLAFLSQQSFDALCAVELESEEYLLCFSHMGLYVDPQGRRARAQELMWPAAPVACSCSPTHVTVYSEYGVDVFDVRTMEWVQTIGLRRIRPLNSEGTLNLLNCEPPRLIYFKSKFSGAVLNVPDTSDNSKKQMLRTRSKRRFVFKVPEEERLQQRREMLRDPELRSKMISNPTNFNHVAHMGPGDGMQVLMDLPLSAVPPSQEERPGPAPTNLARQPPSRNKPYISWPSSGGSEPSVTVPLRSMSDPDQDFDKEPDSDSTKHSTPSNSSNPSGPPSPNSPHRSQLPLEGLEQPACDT
Protocol Details: biochemical
Parameters: species or system HEK293/K-562/placenta mixed human extract; Kinobeads chemoproteomic competition binding, quantified by TMT LC-MS/MS, dose response up to 20 uM
pIC50: −log10 of the molar value.
Readout: pIC50

Substance Smiles: COc1nc(N[C@H]2CC[C@H](NS(=O)(=O)CC(C)C)CC2)nc2[nH]nc(N3CCOC[C@H]3C)c12
Target Under Test: CDC42BPB (Homo sapiens, UniProt Q9Y5S2)
Endpoint Value: ≤ 4.70

====

Target Under Test: UniProt:Q86V86
Protocol Details: biochemical
Set-up: species or system HEK293/K-562/placenta mixed human extract; Kinobeads chemoproteomic competition binding, quantified by TMT LC-MS/MS, dose response up to 20 uM
Readout: IC50

Compound: COc1ccccc1-c1n[nH]c2nc(N[C@H]3CC[C@H](NS(=O)(=O)CCC(F)(F)F)CC3)nc(OC)c12 [compound 31]
Readout: IC50
Endpoint Value: ≥ 20 µM

====

Target Under Test: PRKG1 (Homo sapiens, UniProt Q13976)
Sequence (Q13976 whole entry): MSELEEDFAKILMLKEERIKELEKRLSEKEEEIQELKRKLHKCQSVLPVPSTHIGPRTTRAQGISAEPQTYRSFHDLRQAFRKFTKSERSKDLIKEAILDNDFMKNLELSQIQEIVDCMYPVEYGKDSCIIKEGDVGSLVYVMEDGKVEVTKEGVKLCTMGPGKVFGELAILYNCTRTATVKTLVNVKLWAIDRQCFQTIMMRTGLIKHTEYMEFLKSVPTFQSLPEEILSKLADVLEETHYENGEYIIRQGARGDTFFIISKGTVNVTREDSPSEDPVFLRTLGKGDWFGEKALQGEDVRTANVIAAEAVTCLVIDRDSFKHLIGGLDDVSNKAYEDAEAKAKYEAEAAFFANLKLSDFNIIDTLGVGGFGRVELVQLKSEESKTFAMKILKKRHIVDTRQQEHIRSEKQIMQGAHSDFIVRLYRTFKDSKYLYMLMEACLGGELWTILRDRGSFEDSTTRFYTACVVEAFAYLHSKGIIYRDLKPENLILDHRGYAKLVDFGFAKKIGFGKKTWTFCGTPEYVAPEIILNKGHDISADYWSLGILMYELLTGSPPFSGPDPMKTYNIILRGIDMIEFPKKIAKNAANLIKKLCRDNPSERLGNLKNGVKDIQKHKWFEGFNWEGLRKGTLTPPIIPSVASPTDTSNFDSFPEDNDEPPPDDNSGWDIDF
Protocol Details: biochemical
Parameters: species or system HEK293/K-562/placenta mixed human extract; Kinobeads chemoproteomic competition binding, quantified by TMT LC-MS/MS, dose response up to 20 uM
Readout: IC50

Molecule: COc1nc(N[C@H]2CC[C@H](NS(=O)(=O)CC(C)C)CC2)nc2[nH]nc(N3CCOC[C@H]3C)c12 [compound 39]
Readout: IC50
Endpoint Value: ≥ 20 µM

====

Target Under Test: CSNK1D (Homo sapiens, UniProt P48730)
Sequence (P48730 whole entry): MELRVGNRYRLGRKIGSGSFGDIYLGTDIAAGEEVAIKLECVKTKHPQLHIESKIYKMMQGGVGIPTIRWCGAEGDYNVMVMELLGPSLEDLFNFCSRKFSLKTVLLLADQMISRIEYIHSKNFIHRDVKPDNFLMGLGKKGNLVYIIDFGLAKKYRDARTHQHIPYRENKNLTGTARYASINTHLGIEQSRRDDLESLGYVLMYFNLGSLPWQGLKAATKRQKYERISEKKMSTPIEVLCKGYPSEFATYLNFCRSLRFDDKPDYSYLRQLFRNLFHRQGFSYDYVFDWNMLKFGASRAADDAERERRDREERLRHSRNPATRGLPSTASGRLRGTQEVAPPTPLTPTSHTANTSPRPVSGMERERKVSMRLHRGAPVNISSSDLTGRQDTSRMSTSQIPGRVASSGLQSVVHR
Protocol Details: biochemical
Parameters: species or system HEK293/K-562/placenta mixed human extract; Kinobeads chemoproteomic competition binding, quantified by TMT LC-MS/MS, dose response up to 20 uM

Molecule: COc1nc(N[C@H]2CC[C@H](NS(=O)(=O)CC(C)C)CC2)nc2[nH]nc(N3CCOC[C@H]3C)c12 [compound 39]
IC50: ≥ 20 µM

# credit: paper PMC6407917
